Experiment: Plasma and CSF pharmacokinetics, population PK modeling, Study ALZ1005
Type: in vivo, human
Settings: human, CSF / free plasma, oral; Caucasian early AD; 50 mg q.d.; simulated plasma concentration, free fraction 6%; read-out: Ratio C28d (CSF)/free plasma, Mean (SD)
Protocol: CSF and plasma collection and processing, as well as apolipoprotein E (APOE) ε4 genotyping, are described in Additional file 2. Population PK modeling from sparse PK samples collected in the ALZ1005 Study was performed to derive individual steady-state maximum plasma concentration [Cmax] and area under the concentration-time profile during the dosing interval at steady state [AUC from 0 to 24 hours postdosing]. […] The lower limit of quantification (LLOQ) was 1 ng/ml.
readout.name: Kp at 28 day
Lab note: jot the number down without any unit.

Ask: # lookup: Kp at 28 day of C[C@@]1(c2cc(NC(=O)c3ccc(C#N)cn3)ccc2F)C=CSC(N)=N1
Result: 0.892
